test: maximum tolerated dose in mice; type: in vivo; settings: mouse, in vivo, read-out: MTD
Counter-ions that a name gives are not always drawn.
assay_endpoint: MTD (mg/kg)
Response body: numeric value in mg/kg, unit text excluded.

Asked: Report MTD for Nc1ccn([C@@H]2O[C@H](CO)[C@@H](O)C2(F)F)c(=O)n1 [gemcitabine, hydrochloride]
Given back: 100
